# Species: Rattus norvegicus
# assay: Open TG-GATES - Regimen: Single
# Assay type: toxicity, organism-based, Sprague-Dawley
# Parameters: regimen Single, gender Male, age 6 weeks
# cond: in vivo, po, 100 mg/kg, 9 h, tissue Plasma, route gavage, dose level Low
Lab note: anything with AST below 70 IU/L is marked 1; values at 70 IU/L or higher are marked -1.

Consider the following illustrative entries.
{"compound": "O=C(O)c1cc(/N=N/c2ccc(S(=O)(=O)Nc3ccccn3)cc2)ccc1O", "group_label": 1}
{"compound": "CCc1cc(C(N)=S)ccn1 [ETHIONAMIDE]", "group_label": -1}

Okay, now this compound:
Regarding C[C@H](CS)C(=O)N1CCC[C@H]1C(=O)O , kindly confirm whether its AST is beneath 70 IU/L.
1

====

# Species: Rattus norvegicus
# assay: Open TG-GATES - Regimen: Daily Repeat
# Assay type: toxicity, organism-based, Sprague-Dawley
# Set-up: regimen Daily Repeat, gender Male, age 6 weeks
# cond: in vivo, po, 0 mg/kg, […], tissue Plasma, route gavage, dose level Control, time 28 day
test_readout: CRE (mg/dL)
Quick note: give the figure in mg/dL, leave out the unit.

{"molecule": "CCCC(CCC)C(=O)O", "CRE (mg/dL)": 0.5}
{"molecule": "CO[C@H]1/C=C/O[C@@]2(C)Oc3c(C)c(O)c4c(O)c(c(/C=N/N5CCN(C)CC5)c(O)c4c3C2=O)NC(=O)/C(C)=C\\C=C\\[C@H](C)[C@H](O)[C@@H](C)[C@@H](O)[C@@H](C)[C@H](OC(C)=O)[C@@H]1C", "CRE (mg/dL)": 0.6}
{"molecule": "C[C@H](CS)C(=O)N1CCC[C@H]1C(=O)O", "CRE (mg/dL)": 0.6}

Turning now to a further record.
For the molecule CCc1cc(C(N)=S)ccn1 [ETHIONAMIDE] , what CRE is on record?
0.6

====

# Species on record: Rattus norvegicus
# assay: Open TG-GATES - Regimen: Single
# Format: toxicity, organism-based, Sprague-Dawley
# Parameters: regimen Single, gender Male, age 6 weeks
# cond: in vivo, po, 100 mg/kg, 6 h, tissue Kidney, route gavage, dose level Low
test_readout: KIDNEY_TOTAL

{"compound": "O=C(O)c1cn(C2CC2)c2cc(N3CCNCC3)c(F)cc2c1=O", "test_readout": "KIDNEY_TOTAL", "observed_value": "1.7 g"}

For the compound C[C@H](CS)C(=O)N1CCC[C@H]1C(=O)O , what KIDNEY_TOTAL is on record?
2.2 g

For the compound CCc1cc(C(N)=S)ccn1 [ETHIONAMIDE] , what KIDNEY_TOTAL is on record?
2 g

For the compound Clc1ccccc1CN1CCc2sccc2C1 , what KIDNEY_TOTAL is on record?
1.8 g

For the compound O=C(O)c1cc(/N=N/c2ccc(S(=O)(=O)Nc3ccccn3)cc2)ccc1O , what KIDNEY_TOTAL is on record?
2 g

====

# Species: Rattus norvegicus
# assay: Open TG-GATES - Regimen: Single
# Type: toxicity, organism-based, Sprague-Dawley
# Parameters: regimen Single, gender Male, age 6 weeks
# cond: in vivo, po, 1000 mg/kg, 3 h, tissue Blood, route gavage, dose level High
test_readout: Fbg (mg/dL)
Quick note: give the figure in mg/dL, leave out the unit.

{"compound": "C[C@H](CS)C(=O)N1CCC[C@H]1C(=O)O [CAPTOPRIL]", "observed_value": 204.8}

For the compound O=C(O)c1cc(/N=N/c2ccc(S(=O)(=O)Nc3ccccn3)cc2)ccc1O [SULFASALAZINE] , what Fbg is on record?
221.8

For the compound Clc1ccccc1CN1CCc2sccc2C1 [TICLOPIDINE] , what Fbg is on record?
220.2

For the compound O=C(O)c1cn(C2CC2)c2cc(N3CCNCC3)c(F)cc2c1=O [CIPROFLOXACIN] , what Fbg is on record?
215.6

For the compound CCc1cc(C(N)=S)ccn1 [ETHIONAMIDE] , what Fbg is on record?
212.6

====

# Species: Rattus norvegicus
# assay: Open TG-GATES - Regimen: Single
# Type: toxicity, organism-based, Sprague-Dawley
# Parameters: regimen Single, gender Male, age 6 weeks
# cond: in vivo, po, 100 mg/kg, 9 h, tissue Plasma, route gavage, dose level Low
Property: gamma-GTP; scope: individual compounds
Report the figure along with its unit, number first.

Recorded results for 4 compounds are shown here.
{"compound": "C[C@H](CS)C(=O)N1CCC[C@H]1C(=O)O", "observed_value": "1.8 IU/L"}
{"compound": "CCc1cc(C(N)=S)ccn1 [ETHIONAMIDE]", "observed_value": "1.4 IU/L"}
{"compound": "O=C(O)c1cc(/N=N/c2ccc(S(=O)(=O)Nc3ccccn3)cc2)ccc1O", "observed_value": "1.2 IU/L"}
{"compound": "O=C(O)c1cn(C2CC2)c2cc(N3CCNCC3)c(F)cc2c1=O", "observed_value": "1.4 IU/L"}

Turning now to a further record.
For the compound Clc1ccccc1CN1CCc2sccc2C1 , what gamma-GTP is on record?
1.4 IU/L

====

Property: Hb; scope: individual compounds
# Species on record: Rattus norvegicus
# assay: Open TG-GATES - Regimen: Single
# Format: toxicity, organism-based, Sprague-Dawley
# Design: regimen Single, gender Male, age 6 weeks
# cond: in vivo, po, 300 mg/kg, 9 h, tissue Blood, route gavage, dose level Middle
Quick note: give the figure in g/dL, leave out the unit.

{"compound": "O=C(O)c1cn(C2CC2)c2cc(N3CCNCC3)c(F)cc2c1=O [CIPROFLOXACIN]", "unit": "g/dL", "Hb": 13.2}
{"compound": "CCc1cc(C(N)=S)ccn1 [ETHIONAMIDE]", "unit": "g/dL", "Hb": 14.2}
{"compound": "C[C@H](CS)C(=O)N1CCC[C@H]1C(=O)O [CAPTOPRIL]", "unit": "g/dL", "Hb": 13}
{"compound": "O=C(O)c1cc(/N=N/c2ccc(S(=O)(=O)Nc3ccccn3)cc2)ccc1O [SULFASALAZINE]", "unit": "g/dL", "Hb": 13}

For the compound Clc1ccccc1CN1CCc2sccc2C1 [TICLOPIDINE] , what Hb is on record?
13.3

====

Property: MCH; scope: individual compounds
# Species on record: Rattus norvegicus
# assay: Open TG-GATES - Regimen: Single
# Format: toxicity, organism-based, Sprague-Dawley
# Parameters: regimen Single, gender Male, age 6 weeks
# cond: in vivo, po, 300 mg/kg, 24 h, tissue Blood, route gavage, dose level Middle

Recorded results for 4 compounds are shown here.
{"compound": "C[C@H](CS)C(=O)N1CCC[C@H]1C(=O)O", "MCH": "21.5 pg"}
{"compound": "CCc1cc(C(N)=S)ccn1 [ETHIONAMIDE]", "MCH": "21.7 pg"}
{"compound": "O=C(O)c1cn(C2CC2)c2cc(N3CCNCC3)c(F)cc2c1=O", "MCH": "21.4 pg"}
{"compound": "Clc1ccccc1CN1CCc2sccc2C1", "MCH": "22.1 pg"}

Turning now to a further record.
For the compound O=C(O)c1cc(/N=N/c2ccc(S(=O)(=O)Nc3ccccn3)cc2)ccc1O , what MCH is on record?
21.2 pg

====

# Organism: Rattus norvegicus
# assay: Open TG-GATES - Regimen: Daily Repeat
# Assay type: toxicity, organism-based, Sprague-Dawley
# Set-up: regimen Daily Repeat, gender Male, age 6 weeks
# cond: in vivo, po, 0 mg/kg, 72 h, tissue Plasma, route gavage, dose level Control, time 3 day
Response key: yes (1) means A/G >= 1; no (0) means A/G < 1.

{"compound": "Cn1c(=O)c2[nH]cnc2n(C)c1=O.O", "group_label": "yes (1)"}
{"compound": "CCc1cc(C(N)=S)ccn1 [ETHIONAMIDE]", "group_label": "yes (1)"}
{"compound": "COc1ccc2c(c1)c(CC(=O)O)c(C)n2C(=O)c1ccc(Cl)cc1", "group_label": "yes (1)"}

Could you tell me if the measured A/G of O=C(O)c1cc(/N=N/c2ccc(S(=O)(=O)Nc3ccccn3)cc2)ccc1O reaches 1 or more?
yes (1)

Could you tell me if the measured A/G of NC(=O)N/N=C/c1ccc([N+](=O)[O-])o1 reaches 1 or more?
no (0)

Could you tell me if the measured A/G of COc1ccc(Cc2nccc3cc(OC)c(OC)cc23)cc1OC reaches 1 or more?
yes (1)

Could you tell me if the measured A/G of CN(C)CCC=C1c2ccccc2CCc2ccccc21 reaches 1 or more?
no (0)

====

# Species on record: Rattus norvegicus
# assay: Open TG-GATES - Regimen: Daily Repeat
# Type: toxicity, organism-based, Sprague-Dawley
# Set-up: regimen Daily Repeat, gender Male, age 6 weeks
# cond: in vivo, po, 0 mg/kg, 72 h, tissue Blood, route gavage, dose level Control, time 3 day
Property: Ht; scope: individual compounds
Quick note: give the figure in %, leave out the unit.

Recorded results for 5 compounds are shown here.
{"compound": "CN(C)CCC=C1c2ccccc2CCc2ccccc21", "unit": "%", "Ht": 39.9}
{"compound": "O=C(O)c1cc(/N=N/c2ccc(S(=O)(=O)Nc3ccccn3)cc2)ccc1O", "unit": "%", "Ht": 38.5}
{"compound": "COc1ccc2c(c1)c(CC(=O)O)c(C)n2C(=O)c1ccc(Cl)cc1", "unit": "%", "Ht": 40.3}
{"compound": "Clc1ccccc1CN1CCc2sccc2C1", "unit": "%", "Ht": 38.2}
{"compound": "COc1ccc(Cc2nccc3cc(OC)c(OC)cc23)cc1OC", "unit": "%", "Ht": 40.7}

For the compound CO[C@H]1/C=C/O[C@@]2(C)Oc3c(C)c(O)c4c(O)c(c(/C=N/N5CCN(C)CC5)c(O)c4c3C2=O)NC(=O)/C(C)=C\C=C\[C@H](C)[C@H](O)[C@@H](C)[C@@H](O)[C@@H](C)[C@H](OC(C)=O)[C@@H]1C , what Ht is on record?
42

For the compound NC(=O)N1c2ccccc2C=Cc2ccccc21 [CARBAMAZEPINE] , what Ht is on record?
40.2

For the compound C[C@H](CS)C(=O)N1CCC[C@H]1C(=O)O , what Ht is on record?
41
